Assignment: determine reported pKi for the given compounds.
molecular target: Growth hormone secretagogue receptor type 1 (Homo sapiens, UniProt Q92847); assay: GHS Ligand Binding Assay
Sequence (Q92847 whole entry): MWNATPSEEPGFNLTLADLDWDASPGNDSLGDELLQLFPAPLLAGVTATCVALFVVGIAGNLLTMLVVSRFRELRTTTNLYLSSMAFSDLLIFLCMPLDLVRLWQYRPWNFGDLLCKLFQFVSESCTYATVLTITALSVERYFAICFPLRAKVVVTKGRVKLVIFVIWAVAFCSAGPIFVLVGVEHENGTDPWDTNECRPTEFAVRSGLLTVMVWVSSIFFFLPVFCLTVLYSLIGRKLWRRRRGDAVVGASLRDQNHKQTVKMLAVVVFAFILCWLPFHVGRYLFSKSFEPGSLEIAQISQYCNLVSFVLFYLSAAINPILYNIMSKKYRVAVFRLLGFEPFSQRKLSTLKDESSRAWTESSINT
Where a SMILES comes first, the peptide text is derived from it. [ ]: non-standard residue; d: D form.
In textbook form, pKi equals minus log to base ten of the concentration in mol/L.

Record CC(C)C[C@H](NC(=O)[C@H](CC(C)C)NC(=O)[C@@H](Cc1c[nH]c2ccccc12)NC(=O)[C@H](Cc1ccccc1)NC(=O)[C@@H](Cc1c[nH]c2ccccc12)NC(=O)[C@H](CCC(N)=O)NC(=O)[C@@H](Cc1c[nH]c2ccccc12)NC(=O)[C@@H]1CCCN1C(=O)[C@H](CCCCN)NC(=O)[C@@H]1CCCN1C(=O)[C@H](N)CCCN=C(N)N)C(N)=O [Substance P [DArg1, DTrp5,7,9, Leu11]] (H-[dR]PKP[dW]Q[dW]F[dW]LL-NH2) ; system Growth hormone secretagogue receptor type 1 (Homo sapiens, UniProt Q92847); pKi = 6.53

Item COc1ccc(Cn2c(CCc3c[nH]c4ccccc34)nnc2C(Cc2c[nH]c3ccccc23)NC(=O)c2ccccn2)c(OC)c1 (stereo not drawn) [JMV 3011] was tested on Growth hormone secretagogue receptor type 1 (Homo sapiens, UniProt Q92847); the reported pKi is 8.08

For the compound COc1ccc(Cn2c(CCc3ccccc3)nnc2C(Cc2c[nH]c3ccccc23)NC(=O)c2ccccn2)c(OC)c1 (stereo not drawn) [JMV 3002] , the measured pKi on Growth hormone secretagogue receptor type 1 (Homo sapiens, UniProt Q92847) was 8.04

Where do these numbers come from? They come from BindingDB's records for doi:10.1074/jbc.M113.453423.
